Listing of entries alongside the reported Cmax.
Experiment: Pharmacokinetics of methoxyflavones after single oral administration of KP ethanolic extract in roosters
Format: in vivo, Thai native roosters (Pradu Hang Dum breed)
Details: male, Thai native Pradu Hang Dum, whole blood, single oral KP extract 150 mg/kg, blood, n = 9
Note to self: number, then unit, no commentary.

The examples below pair each entry with its known result.
So for `COc1ccc(-c2cc(=O)c3c(OC)cc(OC)cc3o2)cc1` , the logged Cmax turned out to be 530 ng/mL

The measured Cmax associated with `COc1cc(OC)c2c(=O)c(OC)c(-c3ccc(OC)c(OC)c3)oc2c1` reads 810 ng/mL

Moving on to the next molecule.
The recorded Cmax for `COc1cc(OC)c2c(=O)cc(-c3ccccc3)oc2c1` is 500 ng/mL

* * *

Assay: Pharmacokinetics of methoxyflavones after single oral administration of KP ethanolic extract in roosters
Assay type: in vivo, Thai native roosters (Pradu Hang Dum breed)
Conditions: male, Thai native Pradu Hang Dum, whole blood, single oral KP extract 150 mg/kg, blood, n = 9
Method: Twenty-seven male Thai native Pradu Hang Dum breed roosters were selected for this study. The sample size was calculated by using the G*power program with the following parameters: α = 0.05, power of test = 0.8, standard deviation = 0.05, and effect size = 0.6. […] To extract methoxyflavones from the blood samples, all samples were extracted by liquid–liquid extraction two times using acetonitrile. […] The samples were then filtered through 0.45-μm syringe filters and analyzed using an HPLC assay. […]
measuredQuantity: Tmax
A complete answer gives the number and then names the unit.

Some entries whose results are on file:
Documented Tmax of `COc1cc(OC)c2c(=O)c(OC)c(-c3ccc(OC)c(OC)c3)oc2c1` : 1.8 h

Note to self: Tmax recorded for `COc1ccc(-c2cc(=O)c3c(OC)cc(OC)cc3o2)cc1` was 1.25 h

***
Short answer for `COc1cc(OC)c2c(=O)cc(-c3ccccc3)oc2c1` : Tmax was 1.33 h

* * *

Experiment: Pharmacokinetics of methoxyflavones after single oral administration of KP ethanolic extract in roosters
Type: in vivo, Thai native roosters (Pradu Hang Dum breed)
Details: male, Thai native Pradu Hang Dum, whole blood, po, 200 mg/kg, single oral KP extract 200 mg/kg, blood, n = 9, read-out: AUC
measuredQuantity: AUC (ng·h/mL)
Respond numerically; units are ng·h/mL and should not be typed.

Here are 2 compounds together with their reported answers.
AUC in this record for `COc1cc(OC)c2c(=O)cc(-c3ccccc3)oc2c1` : 1680

The recorded AUC for entry `COc1cc(OC)c2c(=O)c(OC)c(-c3ccc(OC)c(OC)c3)oc2c1` equals 3060

# input for lookup
So, `COc1ccc(-c2cc(=O)c3c(OC)cc(OC)cc3o2)cc1` ? Its AUC was 1450

* * *

Experiment: Pharmacokinetics of methoxyflavones after single oral administration of KP ethanolic extract in roosters
Format: in vivo, Thai native roosters (Pradu Hang Dum breed)
Conditions: male, Thai native Pradu Hang Dum, whole blood, single oral KP extract 100 mg/kg, blood, n = 9
measuredQuantity: Tmax

For reference, reported Tmax for `COc1cc(OC)c2c(=O)cc(-c3ccccc3)oc2c1` stands at 1.17 h

Others:
Tmax recorded for this compound, `COc1cc(OC)c2c(=O)c(OC)c(-c3ccc(OC)c(OC)c3)oc2c1` , is 1.83 h

The measured Tmax associated with `COc1ccc(-c2cc(=O)c3c(OC)cc(OC)cc3o2)cc1` reads 1.25 h
